- measured_target: T1, His-tagged mouse CD38 (ACRO Biosystems #CD8-M5223) (mouse, UniProt P56528 45-304)
- T1 construct: bought recombinant protein with His tag; also called Murine
- T1 sequence (looked up): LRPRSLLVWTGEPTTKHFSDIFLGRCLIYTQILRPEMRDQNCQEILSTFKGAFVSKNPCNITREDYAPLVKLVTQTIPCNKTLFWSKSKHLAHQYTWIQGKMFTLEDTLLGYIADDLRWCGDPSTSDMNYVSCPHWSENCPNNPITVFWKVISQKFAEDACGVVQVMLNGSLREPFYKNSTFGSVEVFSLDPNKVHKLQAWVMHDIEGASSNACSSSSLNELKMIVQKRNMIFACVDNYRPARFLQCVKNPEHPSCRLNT
- test_summary: SPR, captured scFv-Fc, His-CD38 analyte;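 also: SPR on a Carterra LSA, scFv-Fc captured by anti-human Fc on HC30M chip, His-tagged CD38 (human, mouse, cynomolgus) flowed as analyte in eight 1:2 steps from 400 nM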
parameter_measured: Kd (nM)
Dear colleague, please return just the value in nM, with no unit written.

40566p1.B11 (scFv, V domains shown, tested as scFv-Fc supernatant) VH: DVQLVESGGGLVRPGESLRLSCAASGFTFDNYDMTWVRQAPGEGLEWVSFISSRGTFTYYTDSVKGRFTISRDNSKNTLYLQMNSLRAEDTAIYYCAKDSGEYYFFDYWGLGTLVTVSS VL: EIVMTQSPATLSVSPGERATFSCRASQSVNSKLAWYQQKPGQAPRLLIYGASRRATGIPDRFSESGSGTEFTLTISSLQSEDFAVYYCQQYHDWPPLTFGGGTKVEIK	224
40596p1.A5 (scFv, V domains shown, tested as scFv-Fc supernatant) VH: EVQLLESGGGLVQPGGSLRLSCAASGFDFSNNAMSWVRQAPGKGLEYVAGSGWSGSFIFYADSVKGRFTVSRDNSENTLYLQMNSLRAEDTAVYYCAKNPGFGEMDVWGQGTTVTVSS VL: EIVLTQSPGSLSLSPGERATLRCRASQSIGSNLAWYQQKPGQAPSLLIYGASTRAADIPDRFSGSGSGTEFTLTITSLQSEDFAVYYCQQYNSWPPLTFGGGTKVEIK	6.82

Query string: Fill in Kd for record 40596p1.F6 (scFv, V domains shown, tested as scFv-Fc supernatant) VH: EVQLLESGGGLVQPGGSLRLSCAASGFDFSKNAMSWVRQAPGKGLEYVAGSGWSGSFIFYADSVKGRFTVSRDNSENTLYLQMSSLRAEDTAVYYCAKNPGFGEMDVWGQGTTVTVSS VL: EIVLTQSPGSLFLSPGERATLTCRASQTIGSNLAWYQQKFGQAPRLLIYGASTRAADIPDRFSGSGSGTEFTLTISSLQSEDFAVYYCQQYNSWPPLTFGGGTKVEIK
Result string: 10.8
